Test: qHTS assay for small molecule antagonists of retinoid X receptor alpha signaling (AID 588546);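 further: cells stimulated with 9-cis-retinoic acid as agonist; on the % scale 0 is the no-effect control and ±100 the full control effect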
Settings: HEK293T RXRa-UAS-bla, beta-lactamase ratio, antagonist mode; measured here: W530 green channel, cytotoxicity proxy
Results filed as inconclusive are left out.
READOUT TYPE: max response (%)
Just the number please, in %, no unit attached.

CC(=O)Nc1nnc(S(N)(=O)=O)s1; -6.44
COc1ccc(CN(CCN(C)C)c2ccccn2)cc1; 1.42

Please list max response recorded for the compound `Cc1ccc(S(=O)(=O)NC(=O)NN2CCCCCC2)cc1`
-4.69

Annotate the compound `COc1cc(Cc2cnc(N)nc2N)cc(OC)c1OC` with its measured max response.
-17.2

Tell us which max response value is on record for `CN=C(NC#N)NCCSCc1nc[nH]c1C`
1.01

// Input: `C[C@]12CCC(=O)C=C1CC[C@@H]1[C@@H]2C(=O)C[C@@]2(C)[C@H]1CC[C@]2(O)C(=O)CO` . Output its max response only.
12.6
